Target: T1, native CD19 expressed on NALM6 tumor cells (UniProt P15391 20-556)
T1 construct: whole, on cells; also called CD19^+ NALM6; NALM6-wt
T1 sequence (looked up): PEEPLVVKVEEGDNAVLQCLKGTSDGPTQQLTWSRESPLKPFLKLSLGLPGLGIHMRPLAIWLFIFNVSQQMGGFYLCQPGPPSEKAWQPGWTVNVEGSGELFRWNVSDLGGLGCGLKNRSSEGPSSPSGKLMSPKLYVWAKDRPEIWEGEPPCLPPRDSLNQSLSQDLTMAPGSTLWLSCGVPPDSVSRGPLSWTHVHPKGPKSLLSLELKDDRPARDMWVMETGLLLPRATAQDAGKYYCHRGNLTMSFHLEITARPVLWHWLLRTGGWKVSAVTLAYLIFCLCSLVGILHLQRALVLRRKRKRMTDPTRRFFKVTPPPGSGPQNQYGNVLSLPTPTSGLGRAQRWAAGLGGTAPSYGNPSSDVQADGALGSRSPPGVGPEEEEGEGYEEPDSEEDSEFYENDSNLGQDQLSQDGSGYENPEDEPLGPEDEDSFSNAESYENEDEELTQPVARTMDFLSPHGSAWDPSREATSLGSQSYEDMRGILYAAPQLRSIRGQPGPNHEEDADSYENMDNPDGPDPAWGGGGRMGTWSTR
Assay: screen of scFv clones on CD19^+ NALM6 cells, Nalm6-CD19KO cells as negative control
measure.name: binding result

>>> measurement("CD19 14 scFv (P8) (scFv, scFv clone from the display library, screened as a library clone; also called 49; clone 49) scFv: DIQMTQSPSSLSASVGDRVTITCRASQSISNYLNWYQQKPGKAPKLLIYAASSLQSGVPSRFSGSGSGTDFTLTISSLQPEDFATYYCQQAYSAPITFGQGTKVEIKGGGGSGGGGSGGGGSEVQLLESGGGLVQPGGSLRLSCAASGFTFGDYAMSWVRQAPGKGLEWVSAISRGGHGTYYADSVKGRFTISRDNSKNTLYLQMNSLRAEDTAVYYCARLVGYGLDYWGQGTLVTVSS")
"binds"
>>> measurement("CD19 16 scFv (P10) (scFv, scFv clone from the display library, screened as a library clone; also called 51; clone 51) scFv: QSVLTQPPSVSGAPGQRVTISCTGSSSNIGAGYDVHWYQQLPGTAPKLLIYGNNNRPSGVPDRFSGSKSGTSASLAITGLQAEDEADYYCQSYDVSLGVWVFGGGTKLTVLGGGGSGGGGSGGGGSQLQLQESGPGLVKPSETLSLTCTVSGGSISSPSYYWGWIRQPPGKGLEWIGSIYYTGATYYNPSLKSRVTISVDTSKNQFSLKLSSVTAADTAVYYCARYGPAGVGFDYWGQGTLVTVSS")
"binds"
>>> measurement("CD19 7 scFv (P5) (scFv, scFv clone from the display library, screened as a library clone; also called 46; clone 46) scFv: DIQMTQSPSSLSASVGDRVTITCRASQSISKYLNWYQQKPGKAPKLLIYDASSLQSGVPSRFSGSGSGTDFTLTISSLQPEDFATYYCQQSYTIPLTFGQGTKVEIKGGGGSGGGGSGGGGSQVQLVQSGAEVKKPGSSVKVSCKASGGTFSSYAFSWVRQAPGQGLEWMGGIVPLFGAVEYAQKFQGRVTITADESTSTAYMELSSLRSEDTAVYYCAREKGFYRYFDHWGQGTLVTVSS")
"binds"
>>> measurement("CD19 23 scFv (P12) (scFv, scFv clone from the display library, screened as a library clone; also called 53; clone 53) scFv: DIQMTQSPSSLSASVGDRVTITCRASQSIYSYLNWYQQKRGKAPKLLIYDASSLQSGVPSRFSGSGSGTDFTLTISSLQPEDFATYYCQQSYTAPPTFGQGTKVEIKGGGGSGGGGSGGGGSEVQLLESGGGLVQPGGSLRLSCAASGFTFSNYAMSWVRQAPGKGLEWVSAISESGHGTYYADSVKGRFTISRDNSKNTLYLQMNSLRAEDTAVYYCARLDWAGFDVWGQGTLVTVSS")
"binds"
